# ASSAYED_TARGET: T1, ZFP SBS#469 (synthetic)
# T1 chain: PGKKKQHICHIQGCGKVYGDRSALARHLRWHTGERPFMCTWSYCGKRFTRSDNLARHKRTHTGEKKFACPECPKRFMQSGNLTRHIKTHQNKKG
# ASSAY: EMSA
# ASSAY_CONTEXT: tags: MBP fusion
MEASUREMENT_KIND: Kd (nM)
Quick reminder: number only, in nM, skip the unit.

Bench note: what Kd did GAAGAGGTCT (dsDNA) DNA 1: GAAGAGGTCT DNA 2: AGACCTCTTC show?
13.5
